Data credit: paper PMC6447844

# experiment-description: Plasma pharmacokinetics of capmatinib
# Type: in vivo, human
# condition-label: human, plasma, oral, 400 mg, Mean AUCtau, 400 mg b.i.d., tablet group, day 15
assay-metric: AUC
Be sure to follow the number with its unit.

Incoming: # lookup: AUC of CNC(=O)c1ccc(-c2cnc3ncc(Cc4ccc5ncccc5c4)n3n2)cc1F [capmatinib]
Outgoing: 31400 ng·h/mL

###

# experiment-description: Plasma pharmacokinetics of capmatinib
# Format: in vivo, human
# condition-label: human, plasma, oral, 400 mg, Mean AUCtau, 400 mg b.i.d., capsule group, day 15
assay-metric: AUC (ng·h/mL)
Hi! Could you send only the number? It should be in ng·h/mL, unit omitted.

Incoming: # lookup: AUC of CNC(=O)c1ccc(-c2cnc3ncc(Cc4ccc5ncccc5c4)n3n2)cc1F [capmatinib]
Outgoing: 11000
